biological target: TRPM8 (Homo sapiens); construct: purchased Eurofins (Cerep) item #3316; assay: TRPM8 Human Transient Potential Ion Channel Cell Based Agonist Calcium Flux Assay (Eurofins Cerep item #3316); conditions: control activator ligand icilin, read-out: Percent Agonist
Sequence (Q7Z2W7 whole entry): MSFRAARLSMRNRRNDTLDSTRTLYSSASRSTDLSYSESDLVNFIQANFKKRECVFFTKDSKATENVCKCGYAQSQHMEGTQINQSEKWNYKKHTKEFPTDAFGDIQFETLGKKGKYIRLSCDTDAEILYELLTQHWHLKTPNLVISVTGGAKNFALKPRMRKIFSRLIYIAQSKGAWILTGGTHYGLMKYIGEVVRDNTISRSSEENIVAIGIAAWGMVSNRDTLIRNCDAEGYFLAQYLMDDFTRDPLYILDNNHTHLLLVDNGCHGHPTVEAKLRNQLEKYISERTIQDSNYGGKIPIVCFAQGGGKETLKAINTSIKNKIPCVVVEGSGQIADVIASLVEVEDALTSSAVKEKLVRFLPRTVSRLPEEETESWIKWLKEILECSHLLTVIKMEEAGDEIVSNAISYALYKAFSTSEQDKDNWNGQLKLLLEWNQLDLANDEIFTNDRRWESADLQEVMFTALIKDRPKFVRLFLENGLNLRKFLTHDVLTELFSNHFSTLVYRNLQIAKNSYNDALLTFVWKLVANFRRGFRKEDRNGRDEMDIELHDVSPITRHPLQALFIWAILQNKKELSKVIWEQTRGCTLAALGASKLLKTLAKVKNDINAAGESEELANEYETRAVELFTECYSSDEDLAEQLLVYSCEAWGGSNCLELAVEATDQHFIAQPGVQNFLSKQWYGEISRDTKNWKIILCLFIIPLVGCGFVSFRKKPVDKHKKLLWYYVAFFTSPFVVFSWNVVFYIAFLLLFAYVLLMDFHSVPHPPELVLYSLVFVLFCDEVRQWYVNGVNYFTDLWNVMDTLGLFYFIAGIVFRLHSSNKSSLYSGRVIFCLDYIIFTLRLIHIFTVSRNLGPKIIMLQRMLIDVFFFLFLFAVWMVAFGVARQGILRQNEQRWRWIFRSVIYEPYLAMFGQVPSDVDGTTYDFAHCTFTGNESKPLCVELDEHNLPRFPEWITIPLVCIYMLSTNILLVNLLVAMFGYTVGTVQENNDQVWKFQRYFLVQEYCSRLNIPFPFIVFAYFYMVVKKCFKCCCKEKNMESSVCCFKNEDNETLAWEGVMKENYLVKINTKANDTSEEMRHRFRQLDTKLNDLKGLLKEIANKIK
// reported Emax per item
reported-property: Emax

INSERT INTO measurements (molecule, observed_result) VALUES
  ('CC(C)[C@@H]1CC[C@@H](C)C[C@H]1C(=O)Nc1ccccc1CN(C)C [Compound 65]', '> 50%'),
  ('COc1ccc(NC(=O)[C@@H]2C[C@H](C)CC[C@H]2C(C)C)cn1 [Compound 74]', '> 50%'),
  ('CC(C)[C@@H]1CC[C@@H](C)C[C@H]1C(=O)NC12CC(F)(C1)C2 [Compound 29]', '> 100%'),
  ('CC(C)[C@@H]1CC[C@@H](C)C[C@H]1C(=O)NC(=N)N [Compound 69]', '> 75%'),
  ('COCCN1CC(NC(=O)[C@@H]2C[C@H](C)CC[C@H]2C(C)C)C1 [Compound 26]', '> 75%'),
  ('CC(C)[C@@H]1CC[C@@H](C)C[C@H]1C(=O)NCC1CC1(F)F (stereo partly drawn) [Compound 89]', '> 75%'),
  ('COC(=O)C12CC(NC(=O)c3cc(C)ccc3C(C)C)(C1)C2 [Compound 170]', '> 75%'),
  ('CC(C)[C@@H]1CC[C@@H](C)C[C@H]1C(=O)NC12CCC(CO)(CC1)C2 [Compound 46]', '> 100%'),
  ('CC(C)[C@@H]1CC[C@@H](C)C[C@H]1C(=O)NC12CC(C#N)(C1)C2 [Compound 27]', '> 75%'),
  ('CC(C)[C@@H]1CC[C@@H](C)C[C@H]1C(=O)NC12CC(CCO)(C1)C2 [Compound 45]', '> 100%'),
  ('CC(C)[C@@H]1CC[C@@H](C)C[C@H]1C(=O)NC1CCN(C)CC1 [Compound 54]', '> 75%'),
  ('CC(C)[C@@H]1CC[C@@H](C)C[C@H]1C(=O)Nc1ccc(N2CCOCC2)cc1 [Compound 18]', '> 50%'),
  ('C=C(C)[C@@H]1CC[C@@H](C)C[C@H]1C(=O)Nc1ccc(OC)cc1 [Compound 107]', '> 100%'),
  ('CC(C)[C@@H]1CC[C@@H](C)C[C@H]1C(=O)NC1COC1 [Compound 38]', '> 75%'),
  ('CC(C)[C@@H]1CC[C@@H](C)C[C@H]1C(=O)Nc1ccc(C2CC2)cc1 [Compound 6]', '> 75%'),
  ('COc1ccc(NC(=O)[C@@H]2C[C@H](C)CC[C@H]2C(C)=O)cc1 [Compound 108]', '> 5%'),
  ('COC(=O)CC12CC(NC(=O)[C@@H]3C[C@H](C)CC[C@H]3C(C)C)(C1)C2 [Compound 43]', '> 75%'),
  ('CC(C)[C@@H]1CC[C@@H](C)C[C@H]1C(=O)NC12CC(CO)(C1)C2 [Compound 33]', '> 100%');
